Numbers sourced from patent US20250171534A1.

Collected EC50 (read off the curve) values appear next to each entry.
molecular target: T1, LILRA1 expressed on cells (human, UniProt O75019 17-489); assay: flow cytometry on CHO-LILRA1 cells (CHO-RA1), titrated antibody, labelled anti-human Fc, gMFI
T1 construct: whole, on cells; GFP-tagged; also called human LILRA1; CHO-LILRA1
T1 sequence (O75019 17-489): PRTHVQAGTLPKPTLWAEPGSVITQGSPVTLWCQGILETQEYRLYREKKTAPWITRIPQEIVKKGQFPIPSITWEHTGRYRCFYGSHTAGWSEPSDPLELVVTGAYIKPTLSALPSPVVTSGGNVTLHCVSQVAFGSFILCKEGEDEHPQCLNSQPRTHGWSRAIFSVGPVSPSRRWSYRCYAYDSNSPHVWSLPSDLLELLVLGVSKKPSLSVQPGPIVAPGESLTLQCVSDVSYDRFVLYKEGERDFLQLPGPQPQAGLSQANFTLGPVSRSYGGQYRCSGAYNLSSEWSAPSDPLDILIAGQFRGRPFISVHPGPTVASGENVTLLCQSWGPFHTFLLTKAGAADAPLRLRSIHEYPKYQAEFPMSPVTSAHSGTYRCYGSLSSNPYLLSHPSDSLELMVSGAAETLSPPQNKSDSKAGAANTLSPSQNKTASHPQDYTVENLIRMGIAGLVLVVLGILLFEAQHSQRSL

{"binder": "D2M002-126 (antibody, V domains shown, Humanized and optimized variant of D2M002-026) VH: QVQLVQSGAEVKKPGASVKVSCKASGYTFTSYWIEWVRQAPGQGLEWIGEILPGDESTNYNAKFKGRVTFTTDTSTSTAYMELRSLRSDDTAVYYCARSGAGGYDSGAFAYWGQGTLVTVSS VL: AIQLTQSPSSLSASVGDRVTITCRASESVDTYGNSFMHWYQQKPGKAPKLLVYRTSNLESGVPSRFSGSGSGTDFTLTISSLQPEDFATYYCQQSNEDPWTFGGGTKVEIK", "recorded measurement": "~0.1 µg/mL"}
{"binder": "D2M002-026 (antibody, V domains shown, Hit; also called clone #26) VH: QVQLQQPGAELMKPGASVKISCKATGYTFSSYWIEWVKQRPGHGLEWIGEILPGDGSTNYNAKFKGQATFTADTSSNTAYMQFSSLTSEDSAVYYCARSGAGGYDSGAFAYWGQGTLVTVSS VL: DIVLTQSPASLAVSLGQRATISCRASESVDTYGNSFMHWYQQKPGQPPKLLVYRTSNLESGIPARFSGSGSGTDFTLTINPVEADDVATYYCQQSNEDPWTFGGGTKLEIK", "recorded measurement": "~0.09 µg/mL"}
{"binder": "D2M002-103HV1 (antibody, V domains shown, Humanized and optimized variant of the D2M002-002 lineage) VH: QVQLVQSGAEVKKPGASVKVSCKASGYTFTRYVMHWVRQAPGQRLEWIGYINPNNEETKYSQKFKGRVTLTRDTSASTAYMELSSLRSEDTAVYYCARADLEILPYYDHARYAMDYWGQGTLVTVSS VL: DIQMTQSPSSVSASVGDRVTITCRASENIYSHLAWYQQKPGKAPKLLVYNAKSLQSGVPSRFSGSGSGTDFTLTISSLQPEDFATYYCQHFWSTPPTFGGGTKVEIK", "recorded measurement": "~0.2 µg/mL"}

Problem: Tell me measured EC50 (read off the curve) for D2M002-002 (antibody, V domains shown, Hit from immunised mice; also called clone #2; anti-LILRB1/2 clone #2) VH: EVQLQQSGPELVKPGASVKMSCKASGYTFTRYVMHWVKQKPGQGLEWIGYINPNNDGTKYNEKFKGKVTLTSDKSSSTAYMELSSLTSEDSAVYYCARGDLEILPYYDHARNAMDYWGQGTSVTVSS VL: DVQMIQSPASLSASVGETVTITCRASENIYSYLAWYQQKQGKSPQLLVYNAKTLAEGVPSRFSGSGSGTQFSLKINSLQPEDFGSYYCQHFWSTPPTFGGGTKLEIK please.
Result: ~0.5 µg/mL
